Collected plasma concentration, CPM-C 10 values appear next to each entry.
Test conditions: Cootes carp 10, Sep 28, 2011, female, wet weight
Measured parameter: plasma concentration, CPM-C 10 (ng/g)

NCCC(Oc1ccc(C(F)(F)F)cc1)c1ccccc1 (stereo not drawn) [Norfluoxetine] :: 0.227
CCN(CC)C(=O)c1cccc(C)c1 [DEET, N,N-Diethyl-m-toluamide] :: 1.15
COc1ccc(C(CN(C)C)C2(O)CCCCC2)cc1 (stereo not drawn) [Venlafaxine] :: 0.061
O=C(Nc1ccc(Cl)cc1)Nc1ccc(Cl)c(Cl)c1 [Triclocarban] :: 0.453
CCCCC(=O)N(Cc1ccc(-c2ccccc2-c2nnn[nH]2)cc1)[C@H](C(=O)O)C(C)C [Valsartan] :: 0.605
CN(C)CCC=C1c2ccccc2CC(O)c2ccccc21 (stereo not drawn) [10-hydroxy-amitriptyline] :: 0.024
Cc1ccc(C)c(OCCCC(C)(C)C(=O)O)c1 [Gemfibrozil] :: 0.227

###

plasma concentration, JH-C 73 values by entry
Test conditions: Jordan Harbour carp 73, Nov 7, 2011, female, wet weight
Measured parameter: plasma concentration, JH-C 73

Cn1c(=O)c2c(ncn2C)n(C)c1=O :: < 3.09 ng/g
CC(C(=O)O)c1ccc(CC(C)(C)O)cc1 (stereo not drawn) [2-Hydroxy-ibuprofen] :: < 16.5 ng/g
CC(C)Cc1ccc(C(C)C(=O)O)cc1 (stereo not drawn) :: < 3.09 ng/g

###

Each record here notes measured concentration at 21 days.
Method notes: in vivo
Test conditions: goldfish (Carassius auratus), in vivo, plasma concentration, CPM3 caged, CPM3, 07-2014, pooled plasma, wet weight
Measured parameter: concentration at 21 days (ng/g)

NCCC(Oc1ccc(C(F)(F)F)cc1)c1ccccc1 (stereo not drawn) :: 0.168
COc1ccc(C(CN(C)C)C2(O)CCCCC2)cc1 (stereo not drawn) :: 0.041
Cn1c(=O)c2c(ncn2C)n(C)c1=O :: 1.53

###

Method notes: in vivo
Test conditions: goldfish (Carassius auratus), in vivo, plasma concentration, CPM1 caged, CPM1, 07-2014, pooled plasma, wet weight
Measured parameter: concentration at 21 days (ng/g)

COc1ccc(C(CN(C)C)C2(O)CCCCC2)cc1 (stereo not drawn) [Venlafaxine] :: 0.165
NCCC(Oc1ccc(C(F)(F)F)cc1)c1ccccc1 (stereo not drawn) [Norfluoxetine] :: 0.879
CN(C)CCC=C1c2ccccc2CCc2ccccc21 [Amitriptyline] :: 0.029
